Numbers sourced from ChEMBL document CHEMBL4308847.

experimental-system: Metabotropic glutamate receptor 4 (Rattus norvegicus) (UniProt P31423)
Sequence (P31423 whole entry): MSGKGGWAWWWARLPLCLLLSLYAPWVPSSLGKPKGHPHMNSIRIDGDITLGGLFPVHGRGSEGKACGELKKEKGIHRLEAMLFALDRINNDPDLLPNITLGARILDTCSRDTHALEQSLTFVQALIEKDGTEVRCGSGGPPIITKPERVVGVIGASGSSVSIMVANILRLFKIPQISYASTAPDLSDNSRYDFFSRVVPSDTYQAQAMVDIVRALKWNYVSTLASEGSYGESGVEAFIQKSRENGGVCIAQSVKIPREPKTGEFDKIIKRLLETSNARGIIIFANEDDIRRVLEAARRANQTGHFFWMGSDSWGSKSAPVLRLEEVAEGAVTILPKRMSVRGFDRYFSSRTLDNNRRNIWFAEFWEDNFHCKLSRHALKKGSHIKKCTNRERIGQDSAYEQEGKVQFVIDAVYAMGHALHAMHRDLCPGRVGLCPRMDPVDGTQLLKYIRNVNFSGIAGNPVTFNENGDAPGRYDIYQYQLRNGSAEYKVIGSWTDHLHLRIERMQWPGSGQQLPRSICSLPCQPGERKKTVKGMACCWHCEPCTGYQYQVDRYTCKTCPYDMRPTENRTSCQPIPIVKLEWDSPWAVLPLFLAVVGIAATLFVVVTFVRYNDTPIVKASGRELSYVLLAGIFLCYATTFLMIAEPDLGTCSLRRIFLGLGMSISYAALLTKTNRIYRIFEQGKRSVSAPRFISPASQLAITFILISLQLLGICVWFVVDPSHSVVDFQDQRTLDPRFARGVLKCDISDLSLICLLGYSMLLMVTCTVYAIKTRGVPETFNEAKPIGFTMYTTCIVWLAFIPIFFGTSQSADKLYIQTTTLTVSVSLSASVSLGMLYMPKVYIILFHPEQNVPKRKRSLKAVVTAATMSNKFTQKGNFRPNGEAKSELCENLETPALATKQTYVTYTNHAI
measurement-notes: Positive allosteric modulation of rat mGlu4 receptor expressed in HEK cells co-expressing GIRK1/2 assessed as increase in glutamate-induced thallium flux preincubated for 140 secs followed by glutamate addition and measured after 2.5 mins by FluoZin-2-AM dye based fluorescence assay relative to control
Type: cell-based
recorded-metric: %max (%)

Cc1noc2ccc(Nc3n[nH]c4cc(F)cnc34)cc12	111
Cc1noc2ccc(Nc3n[nH]c4cccnc34)cc12	105
O=C(NC1CC(F)(F)C1)c1nsc2cc(Nc3n[nH]c4nccnc34)ccc12	86.6
Cc1noc2c(F)cc(Nc3n[nH]c4cccnc34)cc12	114

----------
experimental-system: UniProtKB Q14833
measurement-notes: Positive allosteric modulation of human mGlu4 receptor expressed in CHO cells co-expressing Gqi5 assessed as increase in glutamate-induced calcium mobilization preincubated for 142 secs followed by EC20 glutamate addition and measured after 147 secs by Fluo-4-AM dye based fluorescence assay relative to control
Type: functional, cell-based
recorded-metric: %max (%)

Cc1noc2ccc(Nc3n[nH]c4ncc(F)cc34)cc12	54
c1cnc2[nH]nc(Nc3ccc4c(C5CCCC5)noc4c3)c2c1	60
CC(=O)N1CCC(c2nsc3cc(Nc4n[nH]c5cccnc45)ccc23)CC1	79
CC(C)(C)Cc1nsc2cc(Nc3n[nH]c4cccnc34)ccc12	70

----------
experimental-system: Metabotropic glutamate receptor 4 (Homo sapiens, UniProt Q14833)
Sequence (Q14833 whole entry): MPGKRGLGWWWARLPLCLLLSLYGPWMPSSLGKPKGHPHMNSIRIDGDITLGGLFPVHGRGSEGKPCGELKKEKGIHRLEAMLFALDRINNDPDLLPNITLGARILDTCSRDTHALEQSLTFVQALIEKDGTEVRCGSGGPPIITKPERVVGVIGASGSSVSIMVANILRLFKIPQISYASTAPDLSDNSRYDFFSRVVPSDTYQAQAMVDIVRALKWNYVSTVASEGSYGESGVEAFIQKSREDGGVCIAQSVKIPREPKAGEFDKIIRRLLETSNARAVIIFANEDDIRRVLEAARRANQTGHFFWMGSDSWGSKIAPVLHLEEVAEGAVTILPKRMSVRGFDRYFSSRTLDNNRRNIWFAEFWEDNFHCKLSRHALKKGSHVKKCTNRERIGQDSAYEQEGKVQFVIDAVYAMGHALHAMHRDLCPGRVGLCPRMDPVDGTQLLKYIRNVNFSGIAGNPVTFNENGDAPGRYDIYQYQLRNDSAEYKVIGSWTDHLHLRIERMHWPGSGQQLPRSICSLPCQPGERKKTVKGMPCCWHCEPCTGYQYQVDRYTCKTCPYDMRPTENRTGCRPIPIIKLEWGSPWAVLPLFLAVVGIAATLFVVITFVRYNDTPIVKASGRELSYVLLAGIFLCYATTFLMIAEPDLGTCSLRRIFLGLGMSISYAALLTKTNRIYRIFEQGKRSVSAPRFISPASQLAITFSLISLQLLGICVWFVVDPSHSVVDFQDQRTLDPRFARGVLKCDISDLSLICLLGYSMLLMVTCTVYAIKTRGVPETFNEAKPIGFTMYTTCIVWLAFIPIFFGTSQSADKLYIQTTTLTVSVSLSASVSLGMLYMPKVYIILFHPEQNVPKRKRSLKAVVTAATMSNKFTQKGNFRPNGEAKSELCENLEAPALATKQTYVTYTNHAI
measurement-notes: Positive allosteric modulation of human mGlu4 receptor expressed in CHO cells co-expressing Gqi5 assessed as increase in glutamate-induced calcium mobilization preincubated for 142 secs followed by EC20 glutamate addition and measured after 147 secs by Fluo-4-AM dye based fluorescence assay relative to control
Format: functional, cell-based
recorded-metric: %max (%)

CC(F)(F)c1noc2cc(Nc3n[nH]c4cccnc34)ccc12	58.8
CCCC(C)c1noc2cc(Nc3n[nH]c4cccnc34)ccc12 (stereo not drawn)	92
CN(C(=O)c1nsc2cc(Nc3n[nH]c4cccnc34)ccc12)C1CC(F)(F)C1	76.7
Cc1noc2cc(Nc3n[nH]c4cccnc34)ccc12	86
c1cnc2c(Nc3ccc4c(C5CCC5)noc4c3)n[nH]c2n1	102
FC1(F)CCN(Cc2nsc3cc(Nc4n[nH]c5cccnc45)cnc23)CC1	84
Cc1noc2ccc(Nc3n[nH]c4cc(F)cnc34)cc12	80.6
c1cnc2c(Nc3ccc4c(C5CC5)nsc4c3)n[nH]c2n1	73

----------
experimental-system: Metabotropic glutamate receptor 4 (Homo sapiens, UniProt Q14833)
measurement-notes: Positive allosteric modulation of human mGlu4 receptor expressed in CHO cells co-expressing Gqi5 assessed as increase in glutamate-induced calcium mobilization preincubated for 142 secs followed by EC20 glutamate addition and subsequent EC80 glutamate addition after 147 secs by Fluo-4-AM dye based fluorescence assay
pEC50: −log10 of the molar value.
recorded-metric: pEC50

c1cnc2c(Nc3ccc4c(C5CC5)nsc4c3)n[nH]c2n1	7.17
Cc1noc2ccc(Nc3n[nH]c4nccnc34)cc12	6.86
c1cnc2c(Nc3ccc4c(C5CCC5)noc4c3)n[nH]c2c1	6.07
O=C(NC1CC(F)(F)C1)c1nsc2cc(Nc3n[nH]c4nccnc34)ccc12	7.59

I: Cc1noc2ccc(Nc3n[nH]c4cc(F)cnc34)cc12
II: CC(C)(C)c1nsc2cc(Nc3n[nH]c4cccnc34)ccc12
Just curious, which one has the larger pEC50 reading, I or II ? Identify your pick by its label.
II
(II: 6.49, I: 5.80)
